pIC50: −log10 of the molar value.
Assay read-out pIC50 on Epidermal growth factor receptor (Homo sapiens); records merged from the literature.

Answered examples (4):
>  <COMPOUND>
CS(=O)(=O)c1cccc(Nc2nccc(-c3sc(N4CCOCC4)nc3-c3cccc(NS(=O)(=O)c4c(F)cccc4F)c3Cl)n2)c1

>  <ENDPOINT_VALUE>
< 6.00

$$$$
>  <COMPOUND>
O=C(CCCCCCOc1ccc2ncnc(Nc3ccc(OCc4cccc(F)c4)c(Cl)c3)c2c1)NO

>  <ENDPOINT_VALUE>
> 7.00

$$$$
>  <COMPOUND>
C=CC(=O)Nc1cc(-c2c(-c3cccc(OCCN4CCCC4)c3)[nH]c3ncc(C(=O)OC(C)C)cc23)ccc1C

>  <ENDPOINT_VALUE>
≥ 7.00

$$$$
>  <COMPOUND>
CN1CCN(Cc2ccc3[nH]/c(=N\C(=O)c4ccc(Oc5cccc(O)c5C=O)s4)n(CC(C)(C)O)c3c2)CC1

>  <ENDPOINT_VALUE>
8.00

$$$$

Request: Param readout = pIC50; param system = Epidermal growth factor receptor (Homo sapiens); param query = `COc1cc(N2CCN(CCS(C)(=O)=O)CC2)c(C)cc1Nc1nccc(-c2sc(C(C)(C)C)nc2-c2cccc(NS(=O)(=O)c3c(F)cccc3F)c2)n1` ; response: value
Result: < 6.00

Request: Param readout = pIC50; param system = Epidermal growth factor receptor (Homo sapiens); param query = `COc1ccc(Cl)cc1Nc1ncnc2nc(Nc3ccc(CN4CCOCC4)cc3)sc12` ; response: value
Result: 7.44

Request: Param readout = pIC50; param system = Epidermal growth factor receptor (Homo sapiens); param query = `C=CC(=O)N1CCC[C@@H](n2nc(-c3ccc(Oc4ccncc4)cc3)c3c(N)ncc(C#N)c32)C1` ; response: value
Result: 6.90
